These data points were gathered from the supplement of paper PMC10567573.

B1: MAGEA6 (parent)
chain: KISGGPRISYPLLHEWALREGEE

- Variants of: B1
- Assay text: protein stability index of a GFP-peptide fusion (GPS, HEK-293T) (PSI 1-6); higher = more stable;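 note: lentivirally expressed fusions sorted by FACS into six bins by GFP to DsRed ratio, PSI derived from sequencing read proportions per bin multiplied by bin number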
- Details: c terminus: native
Outcome measure: protein stability index
Lab note: jot down the number only; don't add units.

L12H
2.3
G5H
1.73
S9L
3.34

Looking up "E22I" , I found its protein stability index recorded as 2.37

Looking up "P6C" , I found its protein stability index recorded as 2.05

Looking up "E22R" , I found its protein stability index recorded as 3.04

Looking up "R7L" , I found its protein stability index recorded as 1.92
